This section presents molecules with their documented melting point values.

Known results for molecules:
> print(dat)
                                   molecule            value
1  Cc1c(Cl)c(Oc2ncc(C(F)(F)F)cc2Cl)nn1C(=O)NC(C)C      57 to 59 °C
2         CCCCCCCCCCCCCCCCSCc1ccc(N(C)C)cc1      41 to 43 °C
3  COc1ccc(Sc2ccc3c(c2)CC[C@H]2NC(=O)CC[C@]32C)cc1    194 to 196 °C
4  CCCCc1c(-c2cc(C)c(O)c(C)c2)[nH]c2ccccc12  83.1 to 84.2 °C
5  CCCOc1ncc(NCC(=O)OC)cc1-c1nc2c(CCC)nn(C)c2c(=O)[nH]1           175 °C
6     CCOC(=O)c1nc(NC(C)=O)sc1Cc1cccc(SC)c1           188 °C

Turning now to a further record.
Query :: I am curious: what melting point value has been reported for CCN(CC)S(=O)(=O)c1ccc(-c2cnc3[nH]c(CCc4cc(OC)ccn4)nc3c2)cc1 ?
Result :: 127 to 129 °C

====

This section presents compounds with their documented melting point values.

Known results for compounds:
> print(dat)
                                   compound          value
1  OCC1Cc2c([nH]c3ccccc23)CN1 (configuration not stated)  191 to 193 °C
2  N#Cc1ccc(N(Cc2ccc(OCc3ccccc3)cc2)n2cnnc2)cc1-c1ccco1  181 to 182 °C
3      CCC(C)(C)c1cc(C(=O)c2ccccc2)c(O)cc1O  100 to 104 °C
4        CC(=O)On1c(C(F)(F)F)nc2ncc(Cl)cc21         103 °C
5  COc1ccc(CS(=O)CC(=O)NO)cc1OC (configuration not stated)         202 °C

Query :: I am curious: what melting point value has been reported for CS(=O)(=O)c1ccc(C(CC2CCCC2)C(=O)Nc2ccncn2)cc1Br (configuration not stated) ?
Result :: 75 to 80 °C

Query :: Another compound: COCC(=O)NCC1CCC(Nc2nc3c(s2)CCCc2ccc(F)cc2-3)CC1 (configuration not stated)
Result :: 63 to 65 °C

Query :: Another compound: Cc1ccc(CC(C)NCC(O)c2cc3ccccc3o2)cc1 (configuration not stated)
Result :: 88 to 100 °C

Query :: Another compound: CN(N)c1ccc(-c2ccc(Cl)cc2)nn1
Result :: 170 to 172 °C

Query :: Another compound: CCC(C)NC(C(=O)NCCCC(c1ccc(F)cc1)c1ccc(F)cc1)C(C)C (configuration not stated)
Result :: 77 to 81 °C

Query :: Another compound: CCCOc1cc(F)cc2c1c(CCN(C)C)cn2CC
Result :: 68.9 to 70.1 °C

Query :: Another compound: CCSc1c(C=O)c(=O)n(C)c(=O)n1C
Result :: 72 °C

Query :: Another compound: COC(=O)C(C)(C)S(=O)(=O)N1CC=C(c2ccc(Br)c(C)c2)CC1
Result :: 100 to 101 °C

Query :: Another compound: CC12CCC(=O)CC1CCC1C2CCC2(C)C(OC(=O)CCl)CCC12 (configuration not stated)
Result :: 135 to 136 °C

Query :: Another compound: CCCN(c1ncnc2[nH]cnc12)n1ccc2ccccc21
Result :: 90 to 95 °C

Query :: Another compound: CC(C)C(=O)c1c(C(C)C)nn2ccccc12
Result :: 53 to 55 °C

====

This section presents compounds with their documented melting point values.

Known results for compounds:
> print(dat)
                                   compound  measurement.kind          value
1  Cc1cc(-n2cc(-c3ccc(S(C)(=O)=O)cc3)nc2C)cc2ccc(=O)[nH]c12     melting point  345 to 347 °C
2                        NN1CCC[C@H]1C(=O)O     melting point  153 to 154 °C
3  CC(C)C(CN1CCCC1)C(=O)c1cc(-c2ccccc2)no1 (stereo not given)     melting point    77 to 79 °C
4  O=S1CCON=C1c1nnc(-c2cccc(Cl)c2)o1 (stereo not given)     melting point  208 to 210 °C
5                        Nc1nccnc1Cc1ccccc1     melting point    93 to 96 °C

Query :: I am curious: what melting point value has been reported for COc1cc(/C=C/S(=O)(=O)CS(=O)(=O)/C=C/c2cc(OC)c(OC)c(OC)c2)cc(OC)c1OC ?
Result :: 127 to 129 °C

Query :: Another compound: COc1oc(-c2ccc(NS(=O)(=O)c3sc4ccc(F)cc4c3C)c(S(C)(=O)=O)c2)nc1C
Result :: 232 to 233 °C

Query :: Another compound: COc1ccc(NC(=O)c2ccc(F)c(F)c2)cc1NS(=O)(=O)c1ccc([N+](=O)[O-])cc1
Result :: 231 to 249 °C

Query :: Another compound: O=c1[nH]c2cc(F)c(F)cc2c(=O)n1OCc1ccccc1
Result :: > 250 °C

Query :: Another compound: CC1(C)OC(=O)Nc2ccc(-c3coc(C#N)c3)cc21
Result :: 255 to 256 °C

====

This section presents compounds with their documented melting point values.

Known results for compounds:
> print(dat)
                                   compound          value
1              Cc1nccc(-c2ccccc2)c1/C=C/C=O    98 to 99 °C
2  Cn1cc(C2=C(c3cn(CCCSc4ncc[nH]4)c4ccccc34)C(=O)NC2=O)c2ccccc21  130 to 132 °C
3  CNC(=O)N(O)C(C)C#Cc1cccc(Oc2ccccn2)c1 (stereo not given)  147 to 149 °C
4  CC(C)N(C(=O)c1ccc(CN2CCOc3cnccc32)c(Br)c1)C1CCCCC1  191 to 192 °C

Turning now to a further record.
Query :: I am curious: what melting point value has been reported for CC12CCCC1C1CC=C3CC(O)CC(O)C3(C)C1CC2 (stereo not given) ?
Result :: 182 to 183 °C

====

This section presents molecules with their documented melting point values.

> print(dat)
                                   molecule          value
1  O=S(=O)(Nc1ccc(Oc2ccc3cccnc3c2)cc1)c1ccc(Cl)cc1         208 °C
2  CN1CCN(C2=Nc3ccccc3-n3ccc4cc(Cl)cc2c43)CC1  170 to 172 °C
3         CCn1c(=O)c2nc(C(=O)O)cn2c2ccccc21  250 to 252 °C
4           CCCCc1nc(C(=O)C(C)C)c(C#N)[nH]1    88 to 89 °C

Query :: I am curious: what melting point value has been reported for CCOC(=O)c1ccc(NCCc2ccc(Cl)cc2)cc1 ?
Result :: 75 to 77 °C

Query :: Another molecule: CC(C)Sc1c(C(=O)O)oc(Br)c1Br
Result :: 130 to 131 °C

Query :: Another molecule: CS(=O)(=O)c1ccc(Cc2ccc(CCNS(=O)(=O)c3ccc(Cl)cc3)c(CCC(=O)O)c2)cc1
Result :: 105 to 107 °C

Query :: Another molecule: CCCN(c1nc(-c2ccc(OC)cc2Cl)c(C)s1)c1cc(N)ccc1OC
Result :: 89 °C

Query :: Another molecule: COc1ccc(-c2cc(C=O)[nH]c2-c2ccc(OC)cc2)cc1
Result :: 165 to 166 °C

Query :: Another molecule: CC1CC(=O)N[C@@H]2CCc3cc(Cl)ccc3[C@@H]12 (stereo partly specified)
Result :: 71.5 to 73 °C

Query :: Another molecule: O=C(c1c[nH]c2cc(Cl)ccc12)C(F)(F)F
Result :: 256 to 258 °C

====

This section presents compounds with their documented melting point values.

Query :: I am curious: what melting point value has been reported for CCCCN(CCCC)C(=O)c1cc(C(C)(C)C)c(O)c(C(C)(C)C)c1 ?
Result :: 94 to 95 °C

Query :: Another compound: Cn1ncc(C(=O)N2CCC2)c1C(=O)Nc1ccn2nc(Br)nc2c1
Result :: > 250 °C

====

MEASUREMENT KIND: melting point

Known results for compounds:
> print(dat)
                                   compound          value
1  Cn1cc(C(=O)NCc2ccc(Cl)cc2)c(=O)c2cc(CN3CCOCC3)cc(C#Cc3cccnc3)c21  195 to 197 °C
2  Cc1cc(OCCCS(C)(=O)=O)cc(C)c1-c1cccc2c1OC[C@H]2Nc1ccc2c(c1)OC[C@H]2CC(=O)O         169 °C
3  COc1ccc2nc(-c3cc(F)c(OC)c(F)c3)cc(Br)c2c1  170 to 172 °C
4  Nc1nc(/C(=N/OC23CC4CC(CC(C4)C2)C3)C(=O)O)cs1  203 to 204 °C
5  CN1CC(CCCl)Oc2ccccc2C1=S (stereo unspecified)  105 to 108 °C

Turning now to a further record.
Query :: I am curious: what melting point value has been reported for COCOc1ccccc1-c1cc(-c2ccc(C(=O)O)cc2)c(C#N)c(NC(=O)c2cccs2)n1 ?
Result :: 205 to 206 °C
